experiment: qHTS assay to identify small molecule antagonists of the peroxisome proliferator-activated receptor gamma (PPARg) signaling pathway - cell viability counter screen (AID 743194); conditions: PPARg-bla HEK293H viability, CellTiter-Glo luminescence, 17 h, co-treated with 50 nM rosiglitazone; series mostly up to 62.6 µM; further: on the % scale 0 is the no-effect control and ±100 the full control effect; nearly all actives have a fitted effect of over 55% in size
Results filed as inconclusive are left out. Active and inactive are the calls of the source. The call rests on the fitted dose curve; in most records, active means well fitted cell-killing curve with a large enough effect in the repeat runs; inconclusive means weak or mixed curves, or effect the other way; inactive means no such curve, though single readings can be large or run the other way.
assay.readout: activity change, negative = cytotoxicity

# annotated cases, reported activity change, negative = cytotoxicity shown
| compound | activity change, negative = cytotoxicity |
| --- | --- |
| CCCCCCCCCCCCCCCCI | inactive |
| CCOc1ccc(NC(=O)OC(C)C)cc1OCC | inactive |
| C=C(C)C(=O)OC1CC(C)CC(C)(C)C1 (stereo not drawn) | inactive |
| CC(=O)N1CCN(c2ccc(O)cc2)CC1 | inactive |
| C1=CCC(c2ccccc2)CC1 (stereo not drawn) | inactive |

Input: Query (compound): N#CCCOCCOCCC#N ; field requested: activity change, negative = cytotoxicity
Output: inactive

Input: Query (compound): C=CCCCCCCCCCCC ; field requested: activity change, negative = cytotoxicity
Output: 13.8% [at 5.95 µM] (inactive)

Input: Query (compound): Nc1ccc(/C=C/c2ccc(N)cc2S(=O)(=O)O)c(S(=O)(=O)O)c1 ; field requested: activity change, negative = cytotoxicity
Output: -0.597% [at 0.55 µM] (inactive)

Input: Query (compound): CCCCC[Si](OCC)(OCC)OCC ; field requested: activity change, negative = cytotoxicity
Output: inactive

Input: Query (compound): C1=C\CC/C=C\CC/1 ; field requested: activity change, negative = cytotoxicity
Output: inactive

Input: Query (compound): O=S(=O)(O)SSS(=O)(=O)O ; field requested: activity change, negative = cytotoxicity
Output: inactive

Input: Query (compound): C[C@H](CCC(=O)NCC(=O)O)[C@H]1CC[C@H]2[C@@H]3[C@H](O)C[C@@H]4C[C@H](O)CC[C@]4(C)[C@H]3C[C@H](O)[C@]12C ; field requested: activity change, negative = cytotoxicity
Output: inactive

Input: Query (compound): CC(C)(C)c1ccc(C=O)cc1 ; field requested: activity change, negative = cytotoxicity
Output: inactive
